Values from ChEMBL document CHEMBL4000175

experimental-system: Beta-glucuronidase (Bos taurus)
assay-overview: Potency index, ratio of D-saccharic acid 1,4-lactone IC50 to compound IC50 for bovine liver beta glucuronidase
For each entry below, report its Ratio IC50 value.

Hey, Beta-glucuronidase (Bos taurus) data for Cc1cc(C(=O)OCCn2c([N+](=O)[O-])cnc2C)ccc1[N+](=O)[O-] : Ratio IC50 came out at 7

Hey, Beta-glucuronidase (Bos taurus) data for Cc1ncc([N+](=O)[O-])n1CCOC(=O)c1cc2ccccc2[nH]1 : Ratio IC50 came out at 24

Hey, Beta-glucuronidase (Bos taurus) data for Cc1ncc([N+](=O)[O-])n1CCOC(=O)c1ccc2ncsc2c1 : Ratio IC50 came out at 6

Hey, Beta-glucuronidase (Bos taurus) data for Cc1ncc([N+](=O)[O-])n1CCOC(=O)c1ccc(Cl)c(Cl)c1 : Ratio IC50 came out at 15
